Numbers sourced from patent US4973545A.

test: Dye stability testing: dark keeping, dark/wet fade
Format: physicochemical
measurement-setup: dye image from coupler, dark oven, 60° C., 70% relative humidity, 1 wk; fractional density change at absorption maximum
endpoint-name: Dark/Wet Fade, 1 wk

INPUT: Entry under review: CCCCCCCCCCC(Oc1ccc(S(=O)(=O)c2ccc(O[Si](C)(C)C(C)(C)C)cc2)cc1)C(=O)Nc1ccc(CCCc2n[nH]c3c(Cl)c(C)nn23)cc1 (stereo not shown) . Reported Dark/Wet Fade, 1 wk?
OUTPUT: +0.02

INPUT: Entry under review: CCCCCCCCCCCCC(Oc1ccc(O[Si](C)(C)C(C)(C)C)c(C(C)(C)C)c1)C(=O)Nc1ccc(Cl)c(NC2=NN(c3c(Cl)cc(Cl)cc3Cl)C(=O)C2)c1 (stereo not shown) . Reported Dark/Wet Fade, 1 wk?
OUTPUT: -0.02

INPUT: Entry under review: CCCCCCCCCCC(Oc1ccc(S(=O)(=O)c2ccc(O)cc2)cc1)C(=O)Nc1ccc(CCCc2n[nH]c3c(Cl)c(C)nn23)cc1 (stereo not shown) . Reported Dark/Wet Fade, 1 wk?
OUTPUT: +0.07

INPUT: Entry under review: CCCCCCCCCCCCC(Oc1ccc(O)c(C(C)(C)C)c1)C(=O)Nc1ccc(Cl)c(NC2=NN(c3c(Cl)cc(Cl)cc3Cl)C(=O)C2)c1 (stereo not shown) . Reported Dark/Wet Fade, 1 wk?
OUTPUT: -0.04

---

test: Spectrophotometric testing: dye hue (λmax and half-bandwidth)
Assay type: physicochemical
measurement-setup: dye image, density about 1.0, C41 processing
Exercise: state measured λmax of dye for each of the molecules provided.
Respond with the number and no other words.

INPUT: Entry under review: CCCCCCCCCCC(Oc1ccc(S(=O)(=O)c2ccc(O[Si](C)(C)C(C)(C)C)cc2)cc1)C(=O)Nc1ccc(CCCc2n[nH]c3c(Cl)c(C)nn23)cc1 (stereo not drawn) . Reported λmax of dye?
OUTPUT: 548.5

INPUT: Entry under review: CCCCCCCCCCC(Oc1ccc(S(=O)(=O)c2ccc(O[Si](C)(C)C(C)(C)C)cc2)cc1)C(=O)Nc1ccc(Cl)c(NC2=NN(c3c(Cl)cc(Cl)cc3Cl)C(=O)C2)c1 (stereo not drawn) . Reported λmax of dye?
OUTPUT: 541.5

INPUT: Entry under review: CCCCCCCCCCC(Oc1ccc(S(=O)(=O)c2ccc(O)cc2)cc1)C(=O)Nc1ccc(CCCc2n[nH]c3c(Cl)c(C)nn23)cc1 (stereo not drawn) . Reported λmax of dye?
OUTPUT: 553

INPUT: Entry under review: CCCCCCCCCCCCC(Oc1ccc(O[Si](C)(C)C(C)(C)C)c(C(C)(C)C)c1)C(=O)Nc1ccc(Cl)c(NC2=NN(c3c(Cl)cc(Cl)cc3Cl)C(=O)C2)c1 (stereo not drawn) . Reported λmax of dye?
OUTPUT: 539.5

INPUT: Entry under review: CCCCCCCCCCCCC(Oc1ccc(O)c(C(C)(C)C)c1)C(=O)Nc1ccc(Cl)c(NC2=NN(c3c(Cl)cc(Cl)cc3Cl)C(=O)C2)c1 (stereo not drawn) . Reported λmax of dye?
OUTPUT: 544.5

INPUT: Entry under review: CCCCCCCCCCC(Oc1ccc(S(=O)(=O)c2ccc(O)cc2)cc1)C(=O)Nc1ccc(Cl)c(NC2=NN(c3c(Cl)cc(Cl)cc3Cl)C(=O)C2)c1 (stereo not drawn) . Reported λmax of dye?
OUTPUT: 545.5

---

test: Spectrophotometric testing: dye hue (λmax and half-bandwidth)
Type: physicochemical
measurement-setup: dye image, density about 1.0, C41 processing
Method: Each coupler of the invention and each comparison coupler was dissolved in half its weight of tricresylphosphate as the coupler solvent using 2-(2-butoxyethoxy)ethyl acetate as the auxiliary solvent. The coupler was dispersed in a gelatin solution and the auxiliary solvent was removed by evaporation under reduced pressure. […] Dye hues are expressed in terms of the wavelength corresponding to the maximum absorption peak (λmax) and the half-bandwidth (HBW) calculated from the spectrophotometric curves. […]
endpoint-name: HBW (half-bandwidth) of dye absorption (nm)
Could you give me the number in nm? Just the number is fine.

INPUT: Entry under review: CCCCCCCCCCC(Oc1ccc(S(=O)(=O)c2ccc(O[Si](C)(C)C(C)(C)C)cc2)cc1)C(=O)Nc1ccc(CCCc2n[nH]c3c(Cl)c(C)nn23)cc1 (stereo not drawn) [Coupler 1] . Reported HBW (half-bandwidth) of dye absorption?
OUTPUT: 86.5

INPUT: Entry under review: CCCCCCCCCCC(Oc1ccc(S(=O)(=O)c2ccc(O[Si](C)(C)C(C)(C)C)cc2)cc1)C(=O)Nc1ccc(Cl)c(NC2=NN(c3c(Cl)cc(Cl)cc3Cl)C(=O)C2)c1 (stereo not drawn) [Coupler 4] . Reported HBW (half-bandwidth) of dye absorption?
OUTPUT: 84.5

INPUT: Entry under review: CCCCCCCCCCCCC(Oc1ccc(O)c(C(C)(C)C)c1)C(=O)Nc1ccc(Cl)c(NC2=NN(c3c(Cl)cc(Cl)cc3Cl)C(=O)C2)c1 (stereo not drawn) [Coupler C-3] . Reported HBW (half-bandwidth) of dye absorption?
OUTPUT: 82

INPUT: Entry under review: CCCCCCCCCCC(Oc1ccc(S(=O)(=O)c2ccc(O)cc2)cc1)C(=O)Nc1ccc(Cl)c(NC2=NN(c3c(Cl)cc(Cl)cc3Cl)C(=O)C2)c1 (stereo not drawn) [Coupler C-4] . Reported HBW (half-bandwidth) of dye absorption?
OUTPUT: 92

INPUT: Entry under review: CCCCCCCCCCC(Oc1ccc(S(=O)(=O)c2ccc(O)cc2)cc1)C(=O)Nc1ccc(CCCc2n[nH]c3c(Cl)c(C)nn23)cc1 (stereo not drawn) [Coupler C-1] . Reported HBW (half-bandwidth) of dye absorption?
OUTPUT: 89.5

INPUT: Entry under review: CCCCCCCCCCCCC(Oc1ccc(O[Si](C)(C)C(C)(C)C)c(C(C)(C)C)c1)C(=O)Nc1ccc(Cl)c(NC2=NN(c3c(Cl)cc(Cl)cc3Cl)C(=O)C2)c1 (stereo not drawn) [Coupler 3] . Reported HBW (half-bandwidth) of dye absorption?
OUTPUT: 78.5

---

test: Dye stability testing: dark keeping, dark/wet fade
Type: physicochemical
measurement-setup: dye image from coupler, dark oven, 60° C., 70% relative humidity, 3 wk; fractional density change at absorption maximum
Exercise: state measured Dark/Wet Fade, 3 wk for each of the compounds provided.
Respond with the number and no other words.

INPUT: Entry under review: CCCCCCCCCCCCC(Oc1ccc(O[Si](C)(C)C(C)(C)C)c(C(C)(C)C)c1)C(=O)Nc1ccc(Cl)c(NC2=NN(c3c(Cl)cc(Cl)cc3Cl)C(=O)C2)c1 (stereo not shown) . Reported Dark/Wet Fade, 3 wk?
OUTPUT: -0.09

INPUT: Entry under review: CCCCCCCCCCC(Oc1ccc(S(=O)(=O)c2ccc(O[Si](C)(C)C(C)(C)C)cc2)cc1)C(=O)Nc1ccc(CCCc2n[nH]c3c(Cl)c(C)nn23)cc1 (stereo not shown) . Reported Dark/Wet Fade, 3 wk?
OUTPUT: 0.00

INPUT: Entry under review: CCCCCCCCCCCCC(Oc1ccc(O)c(C(C)(C)C)c1)C(=O)Nc1ccc(Cl)c(NC2=NN(c3c(Cl)cc(Cl)cc3Cl)C(=O)C2)c1 (stereo not shown) . Reported Dark/Wet Fade, 3 wk?
OUTPUT: -0.09
